Listing of recorded optical density by entry.
testedTarget: human Fc (human)
testDetails: ELISA, negative control
Hi! Could you send only the number? It should be in OD, unit omitted.

{"binder": "366_H01 (antibody, V domains shown) VH: EVQLLESGGGLVQPGGSLRLSCAASGFTFDDYSMHWVRQAPGKGLEWVANINYNGGYTSYADSVKGRFTISRDNSKNTLYLQMNSLRAEDTAVYYCARAATWHDTHLDYWGQGTLVTVSS VL: DIQMTQSPSSLSASVGDRVTITCRASQSILTYLNWYQQKPGKAPKLVIYATTSRHSGVPSRFSGSGSGTDFTLTISSLQPEDFATYYCQQSYESPLTFGGGTKVEIK", "optical density, OD": 0.384}

Task: Which optical density value belongs to 374_B10 (antibody, V domains shown) VH: EVQLLESGGGLVQPGGSLRLSCAASGFTFSSYSMNWVRQAPGKGLEWVSSINYNSGYTSYADSVKGRFTISRDNSKNTLYLQMNSLRAEDTAVYYCARGANWHDTHLDYWGQGTLVTVSS VL: DIQMTQSPSSLSASVGDRVTITCRASQSILTYVNWYQQKPGKAPKLVIYAATSLASGVPSRFSGSGSGTDFTLTISSLQPEDFATYYCQQSYDTPLTFGGGTKVEIK ?
Output: 0.17

Task: Same read-out for 369_F08 (antibody, V domains shown) VH: EVQLLESGGGLVQPGGSLRLSCAASGFTFSDYGMHWVRQAPGKGLEWVSGINYNSGYTSYADSVKGRFTISRDNSKNTLYLQMNSLRAEDTAVYYCARGANWHDTALDYWGQGTLVTVSS VL: DIQMTQSPSSLSASVGDRVTITCRASQSILSYLNWYQQKPGKAPKLLIYAASSLQSGVPSRFSGSGSGTDFTLTISSLQPEDFATYYCQQSYDLPLTFGGGTKVEIK ?
Output: 0.302

Task: Proceed to 374_D10 (antibody, V domains shown) VH: EVQLLESGGGLVQPGGSLRLSCAASGFTFSSYGMHWVRQAPGKGLEWVASINYNGGYTSYADSVKGRFTISRDNSKNTLYLQMNSLRAEDTAVYYCARGANWHDTHLDYWGQGTLVTVSS VL: DIQMTQSPSSLSASVGDRVTITCRASQSILTYVNWYQQKPGKAPKLLIYAATSRASGVPSRFSGSGSGTDFTLTISSLQPEDFATYYCQQSYDNPLTFGGGTKVEIK
Output: 0.329

Task: Would you kindly repeat that for 371_B05 (antibody, V domains shown) VH: EVQLLESGGGLVQPGGSLRLSCAASGFTFSSYSMNWVRQAPGKGLEWVSGINYNSGYTSYADSVKGRFTISRDNSKNTLYLQMNSLRAEDTAVYYCARSATWHDTHLDYWGQGTLVTVSS VL: DIQMTQSPSSLSASVGDRVTITCRASQSILTYLNWYQQKPGKAPKLVIYAATSLASGVPSRFSGSGSGTDFTLTISSLQPEDFATYYCQQSDETPLTFGGGTKVEIK ?
Output: 0.246
